B1: HDV Ribozyme (parent)
chain: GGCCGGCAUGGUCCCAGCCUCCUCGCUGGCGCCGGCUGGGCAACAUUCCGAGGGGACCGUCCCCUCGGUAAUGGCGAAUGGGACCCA

# Variants of: B1
# assay procedure: self-cleavage, relative activity (ratio to wild type); higher = more cleavage; co-transcriptional
Please use Y whenever self-cleavage is not below 0.5, and N whenever it is.

Previously resolved entries follow.
INSERT INTO measurements (variant_name, group) VALUES
  ('G25A A87C', 'N'),
  ('C57A G73U', 'N'),
  ('C21G A56U', 'N');

Check if self-cleavage >= 0.5 (inclusive). Item: C41G U60C
Y

Check if self-cleavage >= 0.5 (inclusive). Item: G38C C64G
N

Check if self-cleavage >= 0.5 (inclusive). Item: G74A A83G
N

Check if self-cleavage >= 0.5 (inclusive). Item: G10C U65G
Y

Check if self-cleavage >= 0.5 (inclusive). Item: A8G G54C
Y

Check if self-cleavage >= 0.5 (inclusive). Item: U60A A70U
Y
